Source listed as PubChem BioAssay AID1919010.

viability, T/C: recorded values
System: Hs578T complex spheroid growth, percent test/control
Assay: Anticancer human tumor Hs578T cell line growth inhibition [AhR];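 note: luminescent viability signal as a proxy for spheroid growth; spheroids exposed to agents for one week after three days of growth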
Conditions: second compound 10 µM; first compound 0.000316 µM; stronger effect = lower value
A number alone suffices; assume %.

{"compound": "CC[C@@]1(O)C(=O)OCc2c1cc1n(c2=O)Cc2cc3c(CN(C)C)c(O)ccc3nc2-1 + Cc1ccccc1N=Nc1ccc(NC(=O)c2ccnn2C)c(C)c1", "scale.unit": "%", "viability, T/C": 65.3}

[ask] Quick one: viability, T/C for CC[C@@]1(O)C(=O)OCc2c1cc1n(c2=O)Cc2cc3c(CN(C)C)c(O)ccc3nc2-1 + Cc1cncc(-c2nc(NCCc3c[nH]c4ccccc34)c3ncn(C(C)C)c3n2)c1 ?
[reply] 9.03

[ask] Entry to check: Cn1ncnc1C1c2n[nH]c(=O)c3cc(F)cc(c23)NC1c1ccc(F)cc1 (stereo unspecified) + Cc1ccccc1N=Nc1ccc(NC(=O)c2ccnn2C)c(C)c1
[reply] 73.7

[ask] Entry to check: Cn1ncnc1C1c2n[nH]c(=O)c3cc(F)cc(c23)NC1c1ccc(F)cc1 (stereo unspecified) + CC(CO)NC(=O)c1cc(-c2ccc(Cl)cc2)nn(-c2cnn(C)c2)c1=O
[reply] 95.1

[ask] Entry to check: CC[C@@]1(O)C(=O)OCc2c1cc1n(c2=O)Cc2cc3c(CN(C)C)c(O)ccc3nc2-1 + CC(CO)NC(=O)c1cc(-c2ccc(Cl)cc2)nn(-c2cnn(C)c2)c1=O
[reply] 110

[ask] Entry to check: Cn1ncnc1C1c2n[nH]c(=O)c3cc(F)cc(c23)NC1c1ccc(F)cc1 (stereo unspecified) + Cc1cncc(-c2nc(NCCc3c[nH]c4ccccc34)c3ncn(C(C)C)c3n2)c1
[reply] 8.48
